test: qHTS drug screen for cell cycle checkpoint inhibitors in PARPi-resistant BRCA-mutant ovarian cancer cell lines. (AID 1963452); conditions: PEO1/OlaR viability, CellTiter-Glo luminescence, 96 h; hits give low values
readout: Z-AUC
Provide a numeric answer; units are not to be included.

Recorded Z-AUC for COc1cc(/C=C(\C#N)C(=O)Nc2nnc(C(F)(F)F)s2)ccc1OCc1ccc(C(F)(F)F)cc1C(F)(F)F , please?
0.582

Recorded Z-AUC for CN(C)S(=O)(=O)c1ccc2c(c1)/C(=C/c1cc3c([nH]1)CCCC3)C(=O)N2 , please?
1.05

Recorded Z-AUC for CC1=C(/C=C/C(C)=C/C=C/C(C)=C\C(=O)O)C(C)(C)CCC1 , please?
-0.242

Recorded Z-AUC for O=C1Nc2ccc(I)cc2/C1=C/c1cc(Br)c(O)c(Br)c1 , please?
1.3
